systemTested: T1, human TGFβ1 (human, UniProt P01137 279-390)
T1 construct: also called TGFβ1 homodimer
T1 sequence (P01137 279-390 limits assumed): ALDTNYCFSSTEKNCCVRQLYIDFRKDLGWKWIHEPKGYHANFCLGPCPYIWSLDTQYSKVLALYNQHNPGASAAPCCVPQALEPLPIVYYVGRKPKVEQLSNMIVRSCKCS
testDescription: Biacore off-rate vs wt GC1008, 50 nM
attributeMeasured: kd var/kd wt
Could you keep your reply to the number by itself?

Take a look at these entries with their results.
[
  {
    "binder": "N32S (antibody, V domains shown, GC1008 IgG4 variant) VH: QVQLVQSGAEVKKPGSSVKVSCKASGYTFSSSVISWVRQAPGQGLEWMGGVIPIVDIANYAQRFKGRVTITADESTSTTYMELSSLRSEDTAVYYCASTLGLVLDAMDYWGQGTLVTVSS VL: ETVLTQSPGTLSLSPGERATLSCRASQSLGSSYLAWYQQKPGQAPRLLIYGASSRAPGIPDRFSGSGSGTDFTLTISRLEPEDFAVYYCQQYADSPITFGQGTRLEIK",
    "readoutValue": 1.3
  },
  {
    "binder": "D56N (antibody, V domains shown, GC1008 IgG4 variant) VH: QVQLVQSGAEVKKPGSSVKVSCKASGYTFSSNVISWVRQAPGQGLEWMGGVIPIVNIANYAQRFKGRVTITADESTSTTYMELSSLRSEDTAVYYCASTLGLVLDAMDYWGQGTLVTVSS VL: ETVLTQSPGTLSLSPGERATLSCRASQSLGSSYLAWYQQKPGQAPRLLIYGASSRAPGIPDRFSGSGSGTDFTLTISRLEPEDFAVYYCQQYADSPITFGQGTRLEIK",
    "readoutValue": 1.2
  }
]

Read the next record carefully.
Per the records, this binder ( I54A (antibody, V domains shown, GC1008 IgG4 variant) VH: QVQLVQSGAEVKKPGSSVKVSCKASGYTFSSNVISWVRQAPGQGLEWMGGVIPAVDIANYAQRFKGRVTITADESTSTTYMELSSLRSEDTAVYYCASTLGLVLDAMDYWGQGTLVTVSS VL: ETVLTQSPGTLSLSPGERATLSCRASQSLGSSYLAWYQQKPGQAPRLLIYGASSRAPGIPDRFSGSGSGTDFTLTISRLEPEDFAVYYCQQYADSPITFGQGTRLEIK ) has kd var/kd wt equal to 1.8
